measured_target: human PAH with the R408W mutation (A375 R408W cells) (Homo sapiens, UniProt P00439, R408W)
Construct: expressed in transfected cells
Sequence (P00439 whole entry R408W): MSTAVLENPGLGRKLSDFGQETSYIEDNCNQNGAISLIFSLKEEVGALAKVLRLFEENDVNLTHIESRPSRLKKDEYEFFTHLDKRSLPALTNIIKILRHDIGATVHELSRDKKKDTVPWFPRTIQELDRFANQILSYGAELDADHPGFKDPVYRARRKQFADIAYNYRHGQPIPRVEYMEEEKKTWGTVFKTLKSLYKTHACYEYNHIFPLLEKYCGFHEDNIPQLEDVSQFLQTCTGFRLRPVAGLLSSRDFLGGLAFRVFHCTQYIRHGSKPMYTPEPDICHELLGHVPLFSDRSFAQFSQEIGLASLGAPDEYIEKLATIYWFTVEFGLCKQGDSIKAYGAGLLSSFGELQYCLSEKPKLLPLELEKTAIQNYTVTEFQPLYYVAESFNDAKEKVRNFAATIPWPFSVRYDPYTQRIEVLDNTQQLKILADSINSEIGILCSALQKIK
assay_overview: Cell Based Phenylalanine Flux Assay
measurement_setup: A375 R408W cells; 24 hrs with compound, then 20 μM sepiapterin and 800 μM 13C9,15N-Phenylalanine for 4 hours; 13C-Tyrosine by LC-MS; average where tested multiple times
Consider the following compounds; for each one, report its AC50.

Look up AC50: COc1ccc2oc([C@@H]3c4nc[nH]c4CCN3C(=O)c3nnc(-c4cnn(C)c4)o3)nc2c1
500 to 1000 nM

Look up AC50: O=C(c1ocnc1C(F)F)N1CCc2[nH]cnc2[C@@H]1c1nc2cc(C(F)(F)F)ccc2o1
≤ 500 nM

Look up AC50: O=C(c1cnn2cc(F)c(Cl)cc12)N1CCc2[nH]cnc2[C@@H]1c1nc2cc(F)ccc2o1
≥ 5000 nM

----------
Consider the following molecules; for each one, report its AC50.
measured_target: human PAH with the R408W mutation (A375 R408W cells) (Homo sapiens, UniProt P00439, R408W)
Construct: expressed in transfected cells
assay_overview: Cell Based Phenylalanine Flux Assay
measurement_setup: A375 R408W cells; 24 hrs with compound, then 20 μM sepiapterin and 800 μM 13C9,15N-Phenylalanine for 4 hours; 13C-Tyrosine by LC-MS; average where tested multiple times

Look up AC50: Cn1nc(C(F)F)cc1C(=O)N1CCc2[nH]cnc2[C@H]1c1nc2cccc(F)c2o1
≤ 500 nM

Look up AC50: C[C@H](O)c1nc(C(F)F)c(C(=O)N2CCc3[nH]cnc3[C@@H]2c2nc3cc(F)ccc3o2)o1
1000 to 5000 nM

Look up AC50: O=C(c1ccnn1C(F)F)N1CCc2[nH]cnc2[C@@H]1c1nc2c(F)ccc(F)c2o1
1000 to 5000 nM

Look up AC50: O=C(c1oc(C2(O)CCC2)nc1C(F)(F)F)N1CCc2[nH]cnc2[C@@H]1c1nc2cc(F)ccc2o1
1000 to 5000 nM

Look up AC50: CC(C)n1ncnc1C(=O)N1CCc2[nH]cnc2[C@H]1c1nc2cccc(F)c2o1
≤ 500 nM

Look up AC50: O=C(c1ocnc1C(F)F)N1CCc2[nH]cnc2[C@@H]1c1nc2c(Br)cccc2o1
≤ 500 nM

Look up AC50: O=C(c1cnn2cc(-c3ccccn3)ccc12)N1CCc2[nH]cnc2[C@@H]1c1nc2c(F)cccc2o1
1000 to 5000 nM

Look up AC50: Cc1ccc2oc([C@@H]3c4nc[nH]c4CCN3C(=O)c3nnc(-c4ccccn4)o3)nc2c1
≤ 500 nM

Look up AC50: CC(C)(O)c1nc(C2CC2)c(C(=O)N2CCc3[nH]cnc3[C@H]2c2nc3cc(F)ccc3o2)o1
≤ 500 nM

Look up AC50: O=C(c1oc(-c2cccnc2)nc1C(F)F)N1CCc2[nH]cnc2[C@H]1c1nc2cccc(F)c2o1
≤ 500 nM

Look up AC50: O=C(c1ccnn1C(F)F)N1CCc2[nH]cnc2[C@@H]1c1nc2cc(F)ccc2o1
1000 to 5000 nM

Look up AC50: COc1cccc2nc([C@@H]3c4nc[nH]c4CCN3C(=O)c3oc(C(C)(C)O)nc3C(F)F)oc12
≤ 500 nM

Look up AC50: O=C(c1ocnc1C(F)F)N1CCc2[nH]cnc2[C@@H]1c1nc2ccccc2o1
500 to 1000 nM
